Test system: Pancreatic MIA PaCa-2
Test protocol: CellTiter Glo cell viability assay
Type: cell-based, human
Test context: Table 5A: 11 dilutions 3-0.00001 μM; single experiments Exp E-K; listed as KYN-140; read-out: IC50
Reported property: IC50 (nM)

> print(dat)
                                   compound  reported.property  readout.value
1  C=CC(C)c1c(/C=C/c2ccc(O)c(OC)c2)cc(O)cc1OC (stereo not shown)               IC50            746

* * *

System: Osteosarcomas T1-73
Test protocol: CellTiter Glo cell viability assay
Type: cell-based, human
Test context: Homo sapiens, 72 h; 3 Days of treatment; 18 2-fold dilutions 5-0.00003 μM
pIC50: −log10 of the molar value.
Reported property: pIC50

> print(dat)
                                smiles.data  readout.value
1  COc1cc(/C=C/c2cc(O)cc(OC)c2CC=C(C)C)ccc1O           6.09
2  CCOc1cc(O)cc(/C=C/c2ccc(O)c(OC)c2)c1CC=C(C)C           8.41
